- system.under.test: Tryp-N (Thermochaetoides thermophila, UniProt G0SEK4)
- Sequence (G0SEK4 68-292): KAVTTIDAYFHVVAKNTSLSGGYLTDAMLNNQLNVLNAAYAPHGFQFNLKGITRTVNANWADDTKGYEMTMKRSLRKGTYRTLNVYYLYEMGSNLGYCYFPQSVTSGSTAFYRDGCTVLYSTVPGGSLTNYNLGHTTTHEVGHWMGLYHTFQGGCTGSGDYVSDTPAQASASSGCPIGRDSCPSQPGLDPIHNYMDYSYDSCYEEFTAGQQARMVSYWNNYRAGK
pIC50: −log10 of the molar value.
metric: pIC50

Req: // query pIC50 value for entry N=C(N)c1ccccc1
Resp: ~3.30
